test: qHTS Assay for inhibitors of the human cytomegalovirus (HCMV); conditions: HFF cells, HCMV-luciferase reporter, 72 h; at 57.5 µM; stronger effect = lower value; note: % is set by controls: 0 for no effect and ±100 for the full control effect
Among all 410,000 compounds or so, about 18,000 (4.4%) were called active. Inconclusive results (about 7%) are left out. The full list was thinned out, with actives kept by preference.
Let's look at some compounds and their measured activity change, negative = inhibition.
Numbers only here, please. The scale is %.

Worked cases, activity change, negative = inhibition given:
CCn1c(=O)c(=O)n(CC)c2cc(N3CCCCC3)c(NC(=O)c3cccc(F)c3)cc21
-12.9
Cc1ccc2cccc(NC(=O)c3ccc(OC(C)C)cc3)c2n1
9.69
CC(C)(C)C1CCc2c(sc3nc(SCC(N)=O)nc(N)c23)C1 (configuration not stated)
-100
COC(=O)C1C(=O)NCC1c1ccc(OC)cc1 (configuration not stated)
19.2
CC(=O)Nc1ccc(S(=O)(=O)Nc2cc(C)cn(Cc3ccc(C)cc3)c2=O)cc1
-7.02
Fc1ccccc1C(c1nnnn1Cc1ccc2c(c1)OCO2)N1CCN(Cc2ccccc2)CC1 (configuration not stated)
-2.67
CC(C)(C)C(=O)COC(=O)c1cc(S(=O)(=O)N2CCCCC2)ccc1N1CCOCC1
-11.9
O=C(c1ccc(Br)cc1)N(Cc1cccs1)c1ccc(F)cc1
-5.5
O=C(NCCc1ccc(F)cc1)c1ccc2nccnc2c1
104
CCCCOc1ccc(C(=O)Nc2cccc(-c3nc4ccccc4o3)c2C)cc1
-17.8

Q: Which measured activity change, negative = inhibition value corresponds to "Cc1ccc(OCCSc2nc3ccc(NC(=O)COc4ccc(C)cc4)cc3s2)cc1" ?
Ans: 7.69

Q: And the next one, "COc1ccc(CNc2nc(-c3ccc(Cl)cc3)nn2C(=O)c2ccccc2)cc1" ?
Ans: 1.03

Q: What would you report for "Nc1nc(SCC(=O)NCCN2CCOCC2)nc2sc3c(c12)CCC3" ?
Ans: 5.31

Q: Same question, Fc1ccc(Cn2nnnc2C(c2cccs2)N2CCCCCC2)cc1 (configuration not stated) this time
Ans: -74.3

Q: Similarly, "COc1ccc(Cl)cc1S(=O)(=O)N1CCC(c2ccncc2)CC1" ?
Ans: -32.1

Q: Now the compound "Cc1ccc(C)c(NC(=O)c2ccc3nccnc3c2)c1"
Ans: -67

Q: Next: "O=C(OCCOc1ccccc1F)c1cc(S(=O)(=O)N2CCOCC2)ccc1F"
Ans: -18

Q: Consider next the compound "CN1c2ccc(Cl)cc2-c2nc(SCC(=O)Nc3cc(F)ccc3F)ncc2S1(=O)=O" in the same way.
Ans: -32.3

Q: Field entry: "COc1ccc2c(C)c(CCC(=O)NCc3ccc(OC)c(OC)c3)c(=O)oc2c1"
Ans: -7.55

Q: And the next one, "CC(=O)c1ccc(NS(=O)(=O)c2ccc(-c3cc(C)no3)s2)cc1" ?
Ans: 0

Q: Let us now turn to "O=C(Nc1ccccc1N1CCCC1)c1ccc(F)c(S(=O)(=O)N2CCOCC2)c1"
Ans: -11.8

Q: For "COc1ccc(Cn2c(=O)oc3ccccc32)cc1" then?
Ans: 6.27

----------
assay: qHTS Assay for inhibitors of the human cytomegalovirus (HCMV); settings: HFF cells, HCMV-luciferase reporter, 72 h; at 57.5 µM; stronger effect = lower value; note: % is set by controls: 0 for no effect and ±100 for the full control effect
Among all 410,000 compounds or so, about 18,000 (4.4%) were called active. Roughly 7% stayed inconclusive and do not appear here. Only a selection was taken, and actives are over-represented in it overall.
PROPERTY LABEL: activity change, negative = inhibition

CC(C)OC(=O)c1ccc(COc2ccc3ccc(=O)oc3c2)o1
-15.4% (inactive)

Q: May I ask what activity change, negative = inhibition has been recorded for CCOc1ccc(C2CC(=O)c3c([nH]c(C(=O)OCc4ccccc4)c3C)C2)cc1 (configuration not stated) ?
Ans: -87.7% (active)

Q: Request: CCc1ccc(NC(=O)C2CCCN2S(=O)(=O)c2ccc3nc(-c4ccccc4)[nH]c3c2)cc1 (configuration not stated)
Ans: -18.7% (inactive)

Q: # iterate: "COC(=O)c1ccc(OC)c(Cn2c(=O)n(Cc3ccccc3)c(=O)c3c2c2cc(OC)ccc2n3C)c1"
Ans: 7.51% (inactive)

Q: Would you mind doing "COc1cc(Cl)ccc1Nc1ncc(C(=O)N2CCN(c3ccccc3OC)CC2)c2ccccc12" as well?
Ans: 9.53% (inactive)

Q: For "CCCCS(=O)(=O)c1oc(-c2cccs2)nc1S(=O)(=O)c1ccccc1" then?
Ans: -108% (active)

Q: CCOC(=O)C1Sc2[nH]c(=O)sc2C(c2ccc(Cl)cc2)C1C(=O)OCC (configuration not stated) ?
Ans: -32.8% (inactive)

Q: Would you kindly repeat that for "COc1ccc(S(=O)(=O)N[C@H]2CC[C@@]34CCCN3C(=O)CCC[C@H]4[C@H]2Cc2ccccc2)cc1" ?
Ans: -13.9% (inactive)

Q: Also, "CN(C)Cc1c(O)ccc2c(=O)c(-c3ccccc3Cl)coc12" please.
Ans: 14.6% (inactive)

Q: Also, "CCc1cnc2c(c1SCC(=O)c1ccccc1)c(=O)n(C)c(=O)n2C" please.
Ans: -3.48% (inactive)

Q: Would you kindly repeat that for COc1cccc(C(=O)NC2=NC(c3ccc(N(C)C)cc3)CC(=O)N2)c1 (configuration not stated) ?
Ans: 1.4% (inactive)

Q: Now the molecule Cc1ccc(NC(=O)C(=O)NCC(c2cccnc2)N2CCOCC2)cc1 (configuration not stated)
Ans: -12.5% (inactive)

Q: What do you have for "Cc1ccc(CSc2oc(-c3cccs3)nc2S(=O)(=O)c2ccc(C)cc2)cc1" ?
Ans: 12.7% (inactive)

Q: Item: Cc1ccc(NC(=O)Nc2sc3nc4n(c(=O)c3c2C)CCC(C)CC4)c(Cl)c1 (configuration not stated)
Ans: -0.215% (inactive)

Q: Again, but for "C=CC[n+]1c(-c2ccc(C)cc2)csc1NNC(=O)Nc1ccccc1"
Ans: -69.2% (active)

----------
assay: qHTS Assay for inhibitors of the human cytomegalovirus (HCMV); details: HFF cells, HCMV-luciferase reporter, 72 h; at 57.5 µM; stronger effect = lower value; note: % is set by controls: 0 for no effect and ±100 for the full control effect
The campaign covered roughly 410,000 compounds. About 18,000 (4.4%) were called active. About 7% were inconclusive and are not listed. The sample holds actives, similar compounds and a random draw of the others, so the mix is not that of the screen.
PROPERTY LABEL: activity change, negative = inhibition (%)
Write the answer as a number in %, unit excluded.

These recorded examples may help you get a feel for the data.
Cc1ccc2c(c1)c1ncnc(N3CCc4ccccc4C3)c1n2C
110
CCCC12CN3CC(C)(CN(C1)C3c1ccccc1Cl)C2=O (stereo not given)
1.49
O=C(Cc1ccc(Cl)cc1)Nc1ccc2nn(-c3ccc(Cl)cc3)nc2c1
21.1

Q: Give the measured activity change, negative = inhibition of CC1(C)CC(=O)c2cc(OCC(=O)NCC3CCCO3)ccc2O1 (stereo not given) .
Ans: 55.1

Q: Request: COc1ccc(C2c3c(oc4ccccc4c3=O)C(=O)N2Cc2ccc3c(c2)OCO3)cc1 (stereo not given)
Ans: -4.99

----------
test: qHTS Assay for inhibitors of the human cytomegalovirus (HCMV); settings: HFF cells, HCMV-luciferase reporter, 72 h; at 57.5 µM; stronger effect = lower value; note: % is set by controls: 0 for no effect and ±100 for the full control effect
Out of some 410,000 compounds screened, about 18,000 (4.4%) were called active. About 7% were inconclusive and are not listed. This excerpt belongs to a sample that is enriched for actives.
# activity change, negative = inhibition per record follows
Kindly answer with a numeric value in %, unit omitted.

COc1ccccc1OCC(=O)Nc1nnc2n1CCS2
1.36
COc1ccc(CCNC(=O)NS(=O)(=O)c2ccc(C)cc2)cc1OC
12.4
CCc1ccccc1NC(=O)CSc1nc(C)c(C(=O)Nc2ccccc2)c(-c2ccc(Cl)cc2)c1C#N
-35.3

Q: Look up activity change, negative = inhibition for this compound: "CCCCCC(=O)N1C[C@H](O)[C@@H](n2cc(COC(=O)c3ccccc3)nn2)C[C@@H]1c1ccc(C)cc1"
Ans: -7.72

Q: Next compound: "Cc1ccc(CN2CCCn3nc(C(=O)NCc4ccccc4Cl)cc3C2=O)cc1"
Ans: -16.2

----------
Quick reference for activity change, negative = inhibition among some compounds
test: qHTS Assay for inhibitors of the human cytomegalovirus (HCMV); conditions: HFF cells, HCMV-luciferase reporter, 72 h; at 57.5 µM; stronger effect = lower value; note: % is set by controls: 0 for no effect and ±100 for the full control effect
In all, about 410,000 compounds went through this assay and about 18,000 (4.4%) were called active. Another 7% or so got no clear call; they are omitted. This excerpt belongs to a sample that is enriched for actives.
Report as a plain number; the unit % is understood.

// solved cases for activity change, negative = inhibition follow
Cc1nc2c(-c3ccc(F)cc3)c(C)nn2c(C)c1CCC(=O)N1CCN(c2ccccn2)CC1
-68.5
COc1cc(NC(=O)c2nn(-c3ccc(C)cc3)c(=O)c3c2c2ccccc2n3C)cc(OC)c1OC
8.56
CCOc1ccccc1C(=O)NCc1ccc2c(c1)CCN2C(=O)c1ccc(F)cc1
-15.6
Cc1ccc(CCNC(=O)c2ccc3c(c2)N(Cc2cc(C)ccc2C)C(=O)c2ccccc2S3=O)cc1 (stereo not given)
-0.139
CCOc1cccc(/C=N/NC(=S)NCCN2CCOCC2)c1O
-99.8
O=[N+]([O-])c1ccc2nc(-c3ccccn3)[nH]c2c1
-79.3

Q: Recorded activity change, negative = inhibition for "CCOc1cc(/C=N/NC(=O)c2cccc(S(=O)(=O)N3CCOCC3)c2)ccc1OCC(=O)N(C)C" , please?
Ans: -10.8

Q: Try this compound next: "Cc1nc2c(-c3ccc(F)cc3)c(C)nn2c(C)c1CCC(=O)NCc1ccco1"
Ans: -13.3

Q: Then this compound: COc1cccc(C(CC(=O)NCCN2CCOCC2)NS(=O)(=O)c2ccc(C)cc2)c1OC (stereo not given)
Ans: -35.5

Q: Would you mind doing O=[N+]([O-])c1ccc(N/N=C2/CCCCC2c2ccccn2)c([N+](=O)[O-])c1 (stereo not given) as well?
Ans: 4.73
